Numbers sourced from patent US10851098B2.

- TARGET: human αVβ6 (Homo sapiens, UniProt P06756+P18564)
- Construct: purchased R & D systems 3817-AV
- Sequence (P06756 31-992 limits assumed): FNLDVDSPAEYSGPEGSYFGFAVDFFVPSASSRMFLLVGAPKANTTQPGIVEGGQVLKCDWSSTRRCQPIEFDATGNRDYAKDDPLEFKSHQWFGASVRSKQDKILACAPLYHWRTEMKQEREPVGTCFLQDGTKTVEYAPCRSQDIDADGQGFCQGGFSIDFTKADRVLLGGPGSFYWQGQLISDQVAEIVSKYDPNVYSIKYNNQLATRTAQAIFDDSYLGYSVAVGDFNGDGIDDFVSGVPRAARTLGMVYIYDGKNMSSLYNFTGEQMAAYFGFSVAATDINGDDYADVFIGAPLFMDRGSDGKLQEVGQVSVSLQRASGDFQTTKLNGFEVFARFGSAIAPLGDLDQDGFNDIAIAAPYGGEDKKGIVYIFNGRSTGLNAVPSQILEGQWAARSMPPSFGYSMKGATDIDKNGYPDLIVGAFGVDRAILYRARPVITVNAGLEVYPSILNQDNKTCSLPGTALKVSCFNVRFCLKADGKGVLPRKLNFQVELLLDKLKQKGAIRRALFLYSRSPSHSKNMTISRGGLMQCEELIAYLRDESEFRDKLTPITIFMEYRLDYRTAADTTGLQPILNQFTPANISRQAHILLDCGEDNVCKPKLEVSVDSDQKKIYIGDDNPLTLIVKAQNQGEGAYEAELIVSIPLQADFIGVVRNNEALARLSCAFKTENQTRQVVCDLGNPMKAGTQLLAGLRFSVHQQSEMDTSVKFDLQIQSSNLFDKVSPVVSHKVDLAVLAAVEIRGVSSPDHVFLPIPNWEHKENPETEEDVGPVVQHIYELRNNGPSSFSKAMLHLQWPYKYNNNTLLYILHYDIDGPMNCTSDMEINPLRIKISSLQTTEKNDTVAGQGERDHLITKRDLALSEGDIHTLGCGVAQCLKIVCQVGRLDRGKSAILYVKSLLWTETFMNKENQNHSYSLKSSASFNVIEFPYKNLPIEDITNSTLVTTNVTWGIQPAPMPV
- Sequence (P18564 22-707 limits assumed): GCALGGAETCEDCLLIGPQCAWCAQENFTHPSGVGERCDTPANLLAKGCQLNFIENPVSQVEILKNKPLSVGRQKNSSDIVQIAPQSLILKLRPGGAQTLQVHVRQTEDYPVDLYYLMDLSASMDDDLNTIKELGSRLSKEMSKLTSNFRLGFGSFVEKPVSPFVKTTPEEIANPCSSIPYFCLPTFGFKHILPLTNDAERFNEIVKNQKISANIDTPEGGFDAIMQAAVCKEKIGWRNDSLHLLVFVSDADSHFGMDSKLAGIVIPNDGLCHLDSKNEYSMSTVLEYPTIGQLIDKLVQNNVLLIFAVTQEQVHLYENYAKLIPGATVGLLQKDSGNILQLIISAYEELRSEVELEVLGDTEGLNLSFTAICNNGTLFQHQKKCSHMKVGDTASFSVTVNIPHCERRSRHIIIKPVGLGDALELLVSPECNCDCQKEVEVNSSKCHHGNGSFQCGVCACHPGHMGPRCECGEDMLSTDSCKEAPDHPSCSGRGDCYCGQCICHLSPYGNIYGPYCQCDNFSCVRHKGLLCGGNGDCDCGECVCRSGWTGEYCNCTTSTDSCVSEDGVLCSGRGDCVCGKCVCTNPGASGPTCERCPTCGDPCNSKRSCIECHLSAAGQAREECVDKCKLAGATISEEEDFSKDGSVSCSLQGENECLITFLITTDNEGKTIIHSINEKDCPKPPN
- ASSAY_PROCEDURE: human αVβ6 HTRF binding assay
Reported IC50 values for the following compounds.
Provide only the numeric value, understood in nM.

The examples below pair each entry with its known result.
CCCOC(=O)N[C@@H](CNC(=O)c1cnn(CCc2ccc3c(n2)NCCC3)c1)C(=O)O : 1.5
O=C(O)CC(NC(=O)c1cnn(CCc2ccc3c(n2)NCCC3)c1CO)c1cccc(OC(F)(F)F)c1 (stereo not drawn) : 11
O=C(NC[C@H](NS(=O)(=O)Cc1cc(Cl)cc(Cl)c1)C(=O)O)c1cnn(CCc2ccc3c(n2)NCCC3)c1 : 6.2
COc1ccc([C@H](CC(=O)O)NC(=O)c2cnn(CCc3ccc4c(n3)NCCC4)c2-c2ccccc2)cc1F : 410

Challenge: Can you look up IC50 on human αVβ6 (Homo sapiens, UniProt P06756+P18564) for Cc1cc(C)c(S(=O)(=O)N[C@@H](CNC(=O)c2cnn(CCCNC3=NCC(O)CN3)c2)C(=O)O)c(C)c1 (stereo partly drawn) ?
Response given: 4.5

Challenge: Can you look up IC50 on human αVβ6 (Homo sapiens, UniProt P06756+P18564) for O=C(O)CC(NC(=O)c1cnn(CCc2ccc3c(n2)NCCC3)c1CO)c1ccc(Cl)c(C(F)(F)F)c1 (stereo not drawn) ?
Response given: 10

Challenge: Can you look up IC50 on human αVβ6 (Homo sapiens, UniProt P06756+P18564) for O=C(O)CC(NC(=O)c1cnn(CCc2ccc3c(n2)NCCC3)c1CO)c1ccccc1 (stereo not drawn) ?
Response given: 124

Challenge: Can you look up IC50 on human αVβ6 (Homo sapiens, UniProt P06756+P18564) for `O=C(O)C[C@H](NC(=O)c1cnn(CCCc2ccc3c(n2)NCCC3)c1)c1cc(Cl)cc(Cl)c1` ?
Response given: 46

Challenge: Can you look up IC50 on human αVβ6 (Homo sapiens, UniProt P06756+P18564) for O=C(O)CC(NC(=O)c1cnn(CCc2ccc3c(n2)NCCC3)c1CO)c1cccc(F)c1 (stereo not drawn) ?
Response given: 130

Challenge: Can you look up IC50 on human αVβ6 (Homo sapiens, UniProt P06756+P18564) for `CC(C)CS(=O)(=O)N[C@@H](CNC(=O)c1cnn(CCc2ccc3c(n2)NCCC3)c1)C(=O)O` ?
Response given: 3.9

Challenge: Can you look up IC50 on human αVβ6 (Homo sapiens, UniProt P06756+P18564) for `O=C(NC[C@H](NS(=O)(=O)Cc1ccccc1)C(=O)O)c1cnn(CCc2ccc3c(n2)NCCC3)c1` ?
Response given: 14

Challenge: Can you look up IC50 on human αVβ6 (Homo sapiens, UniProt P06756+P18564) for `Cc1cc(C)c(S(=O)(=O)N[C@@H](CNC(=O)c2cnn(Cc3cc4c(nc3C)NCCC4)n2)C(=O)O)c(C)c1` ?
Response given: 223

Challenge: Can you look up IC50 on human αVβ6 (Homo sapiens, UniProt P06756+P18564) for `CCOC(=O)C[C@H](NC(=O)c1cnn(CCc2ccc3c(n2)NCCC3)c1)c1cc(Br)cc(C(C)(C)C)c1` ?
Response given: 4310

Challenge: Can you look up IC50 on human αVβ6 (Homo sapiens, UniProt P06756+P18564) for `CCOC(=O)N[C@@H](CNC(=O)c1cnn(CCc2ccc3c(n2)NCCC3)c1)C(=O)O` ?
Response given: 2.3

Challenge: Can you look up IC50 on human αVβ6 (Homo sapiens, UniProt P06756+P18564) for O=C(O)CC(NC(=O)c1cnn(CCc2ccc3c(n2)NCCC3)c1CO)c1ccc(C(F)(F)F)cc1 (stereo not drawn) ?
Response given: 49
